Test system: SK-MEL-5 melanoma
method.summary: NCI-60 one-dose screen, 48 h
stated.conditions: 10 µM unless noted
The panel holds about 83,000 compounds, 20% with a hit somewhere; the sample as a whole holds those more often. Calls of active or inactive are those of the source. The calls were made as follows: active = growth percent below 10; inactive = the rest.
Possible outcomes: 1 = active, -1 = inactive

molecule	category.label
c1ccc(CNc2ccc3nc(CCC4CCCCC4)[nH]c3c2)cc1	-1
O=C1/C(=C/c2ccccc2)CN(C(=O)c2cccnc2)C/C1=C\c1ccccc1	1
N#Cc1nc2c(S(=O)(=O)c3ccccc3)c(N)n(Cc3cccnc3)c2nc1C#N	-1
CN1C(=O)N(C)C2C1NC(=S)N2/N=C/C=C/c1ccccc1[N+](=O)[O-] (stereo not given)	-1
CCOC(=O)c1n[nH]n2c1nc(=O)c1cnn(C)c12	-1
Cn1cc(-c2csc(-c3cn(C(=O)OC(C)(C)C)c4ccccc34)n2)c2ccnc(Cl)c21	-1
O=C(N/N=C/c1ccc([N+](=O)[O-])cc1)c1ccc2nc(-c3ccc(Cl)cc3)[nH]c2c1	1
O=C1NC(=C(Cl)Cl)/C(=N/S(=O)(=O)NCCc2c[nH]c3ccccc23)N1	-1
CC[C@]12C=CCN3CC[C@@]4(c5ccc(OC)cc5N(C)[C@H]4[C@@](O)(C(=O)OC)[C@@H]1OC(=O)CCCN1CCOCC1)[C@@H]32	-1
COc1ccc(C/C(C)=C(\c2ccc(O)cc2)c2ccc(OCCN3CCCC3)cc2)cc1	-1
CCOC(=O)C1CCN(c2ccc(N3C[C@@H](CNCc4ccc(C(=N)N)cc4)OC3=O)cc2)CC1	-1
CN(C)c1ccc(C(=NO)c2ccc(N(C)C)cc2)cc1	-1
COc1ccc(Cc2cnc(NC(=O)c3sc4ccccc4c3Cl)s2)cc1	-1
CCCCCn1sc(=O)n(Cc2ccc(CNC(=O)OCc3ccc4c(Cl)cc(Cl)c(O)c4n3)cc2)c1=O	-1
N#C/C(=C\c1ccc(Cl)cc1Cl)C(=O)Nc1ncc(Cc2ccc(Cl)c(Cl)c2)s1	-1
CN1CCN(CCOc2ccc(-c3cnc4c(-c5ccc(C(F)(F)F)cc5)cnn4c3)cc2)CC1	-1
O=C(/C=C/c1ccccc1)Nc1ncc(Cc2ccccc2)s1	-1
Cn1ccnc1C(=O)/C=C/c1ccc(C(=O)Nc2ccc(F)cc2)cc1	1
COC(=O)Cc1nc(C#N)c(N(C)C)o1	-1
Cn1cc(-c2nonc2-c2c[nH]c3ccc(F)cc23)c2cc(Br)ccc21	-1

----------
Tested on: MDA-MB-231 breast
method.summary: NCI-60 one-dose screen, 48 h (100 = growth as untreated, 0 = no growth, -100 = all killed)
stated.conditions: 10 µM unless noted
This is part of a sample that, as a whole, favours compounds with a hit. Of some 83,000 tested, about 20% had one in any assay.
Would you please tag the item yes (1) when its growth is 30% or above, and no (0) when it is below?

compound	category.label
COc1ccc(/C(C)=C(\c2ccc(Cl)cc2)c2ccc(OCCN3CCCC3)cc2)cc1	no (0)
COC1=CC(c2ccc[nH]2)=N/C1=C\c1[nH]c(C)c(CC(=O)OCc2ccccc2)c1C	no (0)
CCN(CC)CCOc1ccc(Nc2ncc3cc(-c4ccc(O)cc4)c(=O)n(C)c3n2)cc1	yes (1)
CC(CN)[C@@H]1CC[C@]2(CO)CC[C@]3(C)[C@H](CC[C@@H]4[C@@]5(C)CCC(N)C(C)(C)[C@@H]5CC[C@]43C)[C@@H]12 (stereo not given in full)	no (0)
CCCCn1sc(=O)n(Cc2ccc(CNC(=O)OCc3ccc4c(Cl)cc(Cl)c(O)c4n3)cc2)c1=O	yes (1)

----------
Tested on: OVCAR-4 ovarian
method.summary: NCI-60 one-dose screen, 48 h (100 = growth as untreated, 0 = no growth, -100 = all killed)
stated.conditions: 10 µM unless noted
Compounds without any hit were thinned out: in the full panel of roughly 83,000, 20% have a hit. Calls of active or inactive are those of the source. Rule for the calls: active = growth percent below 10; inactive = the rest.
Here the recorded growth is given for each entry.
measured.property: growth

compound	recorded.measurement
C[N+](C)(C/C=C/c1ccccc1)Cc1ccccc1	97.4% (inactive)
O=c1[nH]c(-c2ccc(Cl)cc2)cn1-c1ccc(-n2cc(-c3ccc(Cl)cc3)[nH]c2=O)cc1	98.5% (inactive)
CCOC(=O)Nc1nc2ccc(SCC(C)C)cc2s1	95.3% (inactive)
O=C(Cn1cc(CN2C(=O)c3ccccc3S2(=O)=O)nn1)Nc1cccc(Cl)c1	109% (inactive)
COc1ccc2cc(-c3ccc(-c4ccc(C(=N)N)s4)s3)ccc2c1	-45.6% (active)
N=C(N)SCc1cccc2c(CSC(=N)N)cccc12	116% (inactive)
Cc1ccc(/C=C(\C#N)C(=O)Nc2ncc(Cc3cc(Cl)ccc3Cl)s2)o1	1.2% (active)
COc1cc(C#Cc2ccc(=O)oc2C#Cc2ccccc2)cc(OC)c1OC	96.9% (inactive)
CC(C)CCC[C@@H](C)C1CCC2C3CCC4=C/C(=N/OCCN(C)C)CC[C@]4(C)C3CC[C@@]21C (some centres not stated)	88.5% (inactive)
CCN=C1C=CC(=C(c2ccc(N(C)C)cc2)c2ccc(N(C)C)cc2)c2ccccc21	16.3% (inactive)
CCOC(=O)c1c(C)nc2ccccc2c1/C=C/c1ccc(OC)cc1	54.6% (inactive)
CC[C@]12C=CCN3CC[C@@]4(c5ccc(OC)cc5N(C)[C@H]4[C@@](O)(C(=O)OC)[C@@H]1OC(=O)CCCN1CCOCC1)[C@@H]32	108% (inactive)
CC1(C)C2CC=C(/C=N/NC(=O)C3CCC(=O)N3)C1C2 (configuration not stated)	101% (inactive)
C#CC#CC#CC#CC#CC#CC#CC#CCC1OCC(COC(=O)O[C@@H](C(=O)O[C@H]2C[C@@]3(O)[C@@H](OC(=O)c4ccccc4)[C@@H]4[C@]5(OC(C)=O)CO[C@@H]5C[C@H](O)[C@@]4(C)C(=O)[C@H](OC(C)=O)C(=C2C)C3(C)C)[C@@H](NC(=O)c2ccccc2)c2ccccc2)O1 (some centres not stated)	59.5% (inactive)
CCN(CC)S(=O)(=O)c1ccc(S(=O)(=O)N2CCC[C@@H](C(=O)N3CCN(C(=O)OC(C)(C)C)CC3)C2)cc1	26.1% (inactive)
O=C(CN1C(=O)/C(=C/c2ccco2)SC1=S)NCCc1c[nH]c2ccc(F)cc12	99.7% (inactive)
CCCCCCCCn1ccc2cc(NC(=O)Cn3cc(CN4CCN(CC)CC4)nn3)ccc21	81.5% (inactive)
O=C(NCc1ccc2c(c1)OCO2)NCC1CCCC(CNC(=O)NCc2ccc3c(c2)OCO3)C1 (configuration not stated)	96.1% (inactive)
Cc1ccc(O)c(NC(=O)c2ccc(CNc3ccnc(C(F)(F)F)c3)cc2)c1	53.1% (inactive)
CS(=O)(=O)Nc1cncc(-c2ccc3ncnc(Nc4ccc(F)c(Cl)c4)c3c2)c1	63.4% (inactive)
Clc1nccc2c(-c3csc(-c4c[nH]c5ccccc45)n3)c[nH]c12	68.9% (inactive)
CN1CCN(CCCOc2ccc3ncnc(Nc4ccc(Oc5cccc(F)c5)c(Cl)c4)c3c2)CC1	3.58% (active)
O=C1/C(=C/c2ccccc2)CN(C(=O)c2cccnc2)C/C1=C\c1ccccc1	43.8% (inactive)
CCN1C(=S)N(CC)C2C1NC(=S)N2/N=C/C=C/c1ccccc1OC (configuration not stated)	44.2% (inactive)
CNC(=O)c1cc(Oc2ccc3nc(NC(=O)Nc4ccc(Cl)c(Cl)c4)sc3c2)ccn1	-39.9% (active)
CCN(CC)CCOc1ccc(Nc2ncc3cc(-c4ccc(O)cc4)c(=O)n(C)c3n2)cc1	110% (inactive)
C=CCOC(=O)C1=C(C)NC(=O)NC1c1c(Cl)n(C)c2ccccc12 (configuration not stated)	103% (inactive)
c1ccc2cc(Cn3c[n+](Cc4ccc5ccccc5c4)c4ccccc43)ccc2c1	-14.9% (active)
COc1cc(Nc2c3ccc(Cl)cc3nc3ccc(OC)cc23)c2ncccc2c1	20.3% (inactive)
Nc1ncnc2c1c(-c1ccc(Oc3ccccc3)cc1)nn2CC1SSCC1O (configuration not stated)	67.4% (inactive)
O=C(c1ccc(Cl)cc1Cl)N1c2ccccc2Sc2ccccc21	81.9% (inactive)
C#CCn1cnc2c(Nc3cccc(NC(=O)CCl)c3)ncnc21	26.9% (inactive)
O=C(Nc1cccc(NC(=O)C2CCCCC2)c1)c1ccccn1	101% (inactive)
CC[C@H](CC[C@@H](C)[C@H]1CC[C@H]2[C@@H]3CC[C@@H]4CC(=O)/C(=C\c5ccncc5)C[C@]4(C)[C@H]3CC[C@]12C)C(C)C	110% (inactive)
CCOC(=O)C/C(=N\Nc1cc(=O)[nH]c2ccc(Cl)cc12)C(=O)OCC	107% (inactive)
CC1O[C@@H]2C[C@@](O)([C@H]1O)n1c3ccccc3c3c4c(c5c6ccccc6n2c5c31)C(=O)NC4=O (some centres not stated)	66.8% (inactive)
O=C1NC(=C(Cl)Cl)/C(=N/S(=O)(=O)NCCc2c[nH]c3ccccc23)N1	58.6% (inactive)

Values were extracted from PubChem BioAssay (NCI).
